Each record here notes measured protein stability index.
B1: ANKRD17 (parent)
chain: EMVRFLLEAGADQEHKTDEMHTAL

Variants of: B1
Test: protein stability index of a GFP-peptide fusion (GPS, HEK-293T) (PSI 1-6); higher = more stable;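 also: lentivirally expressed fusions sorted by FACS into six bins by GFP to DsRed ratio, PSI derived from sequencing read proportions per bin multiplied by bin number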
Details: c terminus: a fixed tail appended
Lab note: record the figure alone, no unit after it.

Below, each entry is followed by its recorded protein stability index result.
> print(dat)
                    input.sequence  experimental.value
1   EMVRFFLEAGADQEHKTDEMHTAL [L6F]                3.08
2  EMVRFLLEAGADQEEKTDEMHTAL [H15E]                3.04
3  EMVRFLLEAGADQEHKTDEQHTAL [M20Q]                   3
4  EMVRFLLEAGADQEHSTDEMHTAL [K16S]                2.91
5  EMVRFLLEAGADQEHKEDEMHTAL [T17E]                2.99

Below: the item to evaluate.
stdin: If you can, please state the reported protein stability index value of EMFRFLLEAGADQEHKTDEMHTAL [V3F] .
stdout: 2.97
